# ASSAY NAME: Plasma pharmacokinetics, non-compartmental analysis
# Assay type: in vivo, human
# RUN PARAMETERS: human, plasma, oral, 120 mg, Cmax ss, Gmean (n) (range), following BID dosing; 120 mg BID tablet
MEASUREMENT NAME: Cmax (µg/mL)
Express it in µg/mL; write the number only.

According to the records, this compound `COc1ccc(-c2ccc3c(N4CCOC[C@@H]4C)nc(N4CCOC[C@@H]4C)nc3n2)cc1CO` displays Cmax of 0.355

====

# ASSAY NAME: Plasma pharmacokinetics, non-compartmental analysis
# Assay type: in vivo, human
# RUN PARAMETERS: human, plasma, oral, 90 mg, t1/2 ss, Amean (n) (range), following BID dosing; 90 mg BID tablet
MEASUREMENT NAME: half-life (h)
Express it in h; write the number only.

According to the records, this compound `COc1ccc(-c2ccc3c(N4CCOC[C@@H]4C)nc(N4CCOC[C@@H]4C)nc3n2)cc1CO` displays half-life of 2.63
